Ref: patent US7481993B2

# testDetails: Cysteine challenge stability of ^99mTc chelator peptides
# Format: physicochemical
# conditionSet: N1-N2-Cys triamide thiol chelators; cysteine challenge; 10 h
* marks the point of attachment. Bz = O=C(c1ccccc1)*
I'd be grateful if you could share measured % Peptide Complexed to ^99mTc 10 h for these entries.

Item Bz-Gly-Gly-Met-Cys-Ala.amide (Bz-GGMCA-NH2; SMILES CSCC[C@H](NC(=O)CNC(=O)CNC(=O)c1ccccc1)C(=O)N[C@@H](CS)C(=O)N[C@@H](C)C(N)=O) has what recorded % Peptide Complexed to ^99mTc 10 h?
78.6%

Check Ac-Tyr-Gly-Gly-(D)Orn-Cys-Ala.amide [GoC2] too.
87.2%

Proceed to Bz-Gly-Gly-Glu-Cys-Ala.amide (Bz-GGECA-NH2; SMILES C[C@H](NC(=O)[C@H](CS)NC(=O)[C@H](CCC(=O)O)NC(=O)CNC(=O)CNC(=O)c1ccccc1)C(N)=O)
74.1%

Continue with Ac-Tyr-Gly-Met-Gly-Cys-Ala.amide (Ac-YGMGCA-NH2)
79.9%

====

# testDetails: Cysteine challenge stability of ^99mTc chelator peptides
# Type: physicochemical
# conditionSet: N1-N2-Cys triamide thiol chelators; cysteine challenge; 10 h
* marks the point of attachment. Bz = O=C(c1ccccc1)*
So I've got a bunch of substances here, and I need their % Peptide Complexed to ^99mTc 10 h values.
Give the number; % is assumed, so skip it.

Record request: % Peptide Complexed to ^99mTc 10 h value, item Ac-Tyr-Gly-Gly-His-Cys-Ala.amide (Ac-YGGHCA-NH2)
69.2

Record: Ac-Tyr-Gly-Gly-Orn-Cys-Ala.amide [GOC]
78.1

Please answer likewise for Bz-Gly-Gly-Gln-Cys-Ala.amide (Bz-GGQCA-NH2; SMILES C[C@H](NC(=O)[C@H](CS)NC(=O)[C@H](CCC(N)=O)NC(=O)CNC(=O)CNC(=O)c1ccccc1)C(N)=O)
78.7

Param item: Ac-Tyr-Gly-Glu-Gly-Cys-Ala.amide (Ac-YGEGCA-NH2)
60.1

====

Give HPLC RCP 0.5 hours for every item shown.
# testDetails: HPLC radiochemical purity (RCP) stability of ^99mTc radiolabeled somatostatin peptides
# Type: physicochemical
# conditionSet: ^99mTc labeled somatostatin peptide, (β)Dap-N2-Cys chelator; 0.5 hours; sum of percent areas of the two complex peaks
Report the figure in % without appending any unit label.

Could you tell me which HPLC RCP 0.5 hours is on file for cyclo-[Tyr-(D)Trp-Lys-Thr-Phe-(N-Me)Hcy]-CH2CO.(β)Dap-Orn-Cys-Thr-Ser [—CH2CH2CH2NH2] ?
97.0

Subsequent entry: cyclo-[Tyr-(D)Trp-Lys-Thr-Phe-(N-Me)Hcy]-CH2CO.(β)Dap-Lys-Cys-Thr-Ser [—CH2CH2CH2CH2NH2]
83.4

And the next one, cyclo-[Tyr-(D)Trp-Lys-Thr-Phe-(N-Me)Hcy]-CH2CO.(β)Dap-Gly-Cys-Thr-Ser [—H] ?
89.7

Also check cyclo-[Tyr-(D)Trp-Lys-Thr-Phe-(N-Me)Hcy]-CH2CO.(β)Dap-Met-Cys-Thr-Ser [—CH2CH2SCH3]
95.0

Next entry: cyclo-[Tyr-(D)Trp-Lys-Thr-Phe-(N-Me)Hcy]-CH2CO.(β)Dap-Dab-Cys-Thr-Ser [—CH2CH2NH2]
94.3

Try the substance cyclo-[Tyr-(D)Trp-Lys-Thr-Phe-(N-Me)Hcy]-CH2CO.(β)Dap-(α)Dap-Cys-Thr-Ser [—CH2NH2]
88.5

====

# testDetails: Cysteine challenge stability of ^99mTc chelator peptides
# Type: physicochemical
# conditionSet: N1-N2-Cys triamide thiol chelators; cysteine challenge; 4 h
* marks the point of attachment. Bz = O=C(c1ccccc1)*
Field: % Peptide Complexed to ^99mTc 4 h. Provide a value for each of the substances that follow.
Entry format: amount then unit.

So what does the record say about % Peptide Complexed to ^99mTc 4 h for Bz-Gly-Gly-Glu-Cys-Ala.amide (Bz-GGECA-NH2; SMILES C[C@H](NC(=O)[C@H](CS)NC(=O)[C@H](CCC(=O)O)NC(=O)CNC(=O)CNC(=O)c1ccccc1)C(N)=O) ?
84.5%

// repeat for Bz-Gly-Gly-Met-Cys-Ala.amide (Bz-GGMCA-NH2; SMILES CSCC[C@H](NC(=O)CNC(=O)CNC(=O)c1ccccc1)C(=O)N[C@@H](CS)C(=O)N[C@@H](C)C(N)=O) and report
88.6%

Now give it for Bz-Gly-Gly-Gln-Cys-Ala.amide (Bz-GGQCA-NH2; SMILES C[C@H](NC(=O)[C@H](CS)NC(=O)[C@H](CCC(N)=O)NC(=O)CNC(=O)CNC(=O)c1ccccc1)C(N)=O) too.
88.7%

Next up: Ac-Tyr-Gly-Met-Gly-Cys-Ala.amide (Ac-YGMGCA-NH2)
89.3%

Same for Ac-Tyr-Gly-Gly-His-Cys-Ala.amide (Ac-YGGHCA-NH2)
72.9%

Likewise for Ac-Tyr-Gly-Glu-Gly-Cys-Ala.amide (Ac-YGEGCA-NH2) ?
78.1%

Do the same for Ac-Tyr-Gly-Gly-Orn-Cys-Ala.amide [GOC] please
90.0%

Entry Ac-Tyr-Gly-Gly-(D)Orn-Cys-Ala.amide [GoC2] please
89.1%

====

# testDetails: Cysteine challenge stability of ^99mTc chelator peptides
# Type: physicochemical
# conditionSet: N1-N2-Cys triamide thiol chelators; 150 μg cysteine, room temperature; Initial (within 5 minutes)
# Procedure: For the ^99mTc radiolabeling, a peptide as the TFA salt was dissolved in saline at 1 mg/mL and 100 μg (100 μL) was added to a ^99mTc placebo vial. […] The radiochemical purity (RCP) of the ^99mTc or ^188Re peptides was measured by gradient reversed phase HPLC using a Eurosphere-100 C18 HPLC column and 0.1% TFA mobile phases moderated with acetonitrile. Radioactive components were detected in the HPLC system using an in-line radiometric detector. […]
* marks the point of attachment. Bz = O=C(c1ccccc1)*
For each entry below, report its % Peptide Complexed to ^99mTc Initial value.
Reply with just the number (in %).

Need % Peptide Complexed to ^99mTc Initial, item Ac-Tyr-Gly-Met-Gly-Cys-Ala.amide (Ac-YGMGCA-NH2)
93.9

Subsequent entry: Ac-Tyr-Gly-Glu-Gly-Cys-Ala.amide (Ac-YGEGCA-NH2)
91.4

Another substance to look at: Ac-Tyr-Gly-Gly-(D)Orn-Cys-Ala.amide [GoC2]
94.3

Also need Bz-Gly-Gly-Gln-Cys-Ala.amide (Bz-GGQCA-NH2; SMILES C[C@H](NC(=O)[C@H](CS)NC(=O)[C@H](CCC(N)=O)NC(=O)CNC(=O)CNC(=O)c1ccccc1)C(N)=O) , thanks.
97.8

Proceed to Ac-Tyr-Gly-Gly-Orn-Cys-Ala.amide [GOC]
98.2

Same again, this time with Ac-Tyr-Gly-Gly-His-Cys-Ala.amide (Ac-YGGHCA-NH2)
78.8

Proceed to Bz-Gly-Gly-Glu-Cys-Ala.amide (Bz-GGECA-NH2; SMILES C[C@H](NC(=O)[C@H](CS)NC(=O)[C@H](CCC(=O)O)NC(=O)CNC(=O)CNC(=O)c1ccccc1)C(N)=O)
100

And what about the substance Bz-Gly-Gly-Met-Cys-Ala.amide (Bz-GGMCA-NH2; SMILES CSCC[C@H](NC(=O)CNC(=O)CNC(=O)c1ccccc1)C(=O)N[C@@H](CS)C(=O)N[C@@H](C)C(N)=O) ?
96.9

====

# testDetails: Cysteine challenge stability of ^99mTc chelator peptides
# Assay type: physicochemical
# conditionSet: N1-N2-Cys triamide thiol chelators; cysteine challenge; 12 h
* marks the point of attachment. Bz = O=C(c1ccccc1)*
Would you please tag the item Met when its % Peptide Complexed to ^99mTc 12 h is 80% or above, and Not met when it is below?

Threshold query (% Peptide Complexed to ^99mTc 12 h >= 80%) on Ac-Tyr-Gly-Gly-His-Cys-Ala.amide (Ac-YGGHCA-NH2)
Not met

Input Bz-Gly-Gly-Glu-Cys-Ala.amide (Bz-GGECA-NH2; SMILES C[C@H](NC(=O)[C@H](CS)NC(=O)[C@H](CCC(=O)O)NC(=O)CNC(=O)CNC(=O)c1ccccc1)C(N)=O)
Not met

Queued: Ac-Tyr-Gly-Gly-(D)Orn-Cys-Ala.amide [GoC2]
Met

Here is the next substance: Bz-Gly-Gly-Gln-Cys-Ala.amide (Bz-GGQCA-NH2; SMILES C[C@H](NC(=O)[C@H](CS)NC(=O)[C@H](CCC(N)=O)NC(=O)CNC(=O)CNC(=O)c1ccccc1)C(N)=O)
Not met

Another substance to check: Bz-Gly-Gly-Met-Cys-Ala.amide (Bz-GGMCA-NH2; SMILES CSCC[C@H](NC(=O)CNC(=O)CNC(=O)c1ccccc1)C(=O)N[C@@H](CS)C(=O)N[C@@H](C)C(N)=O)
Not met

Try the substance Ac-Tyr-Gly-Gly-Orn-Cys-Ala.amide [GOC]
Met

Now the same for Ac-Tyr-Gly-Met-Gly-Cys-Ala.amide (Ac-YGMGCA-NH2)
Not met
